meta.source: patent US9193719B2

- Test system: M-NFS-60 cells
- assay_procedure: M-NFS-60 cell proliferation assay (resazurin)
- Format: cell-based
- experimental_parameters: 67 h incubation
pIC50: −log10 of the molar value.
reported_endpoint: pIC50

Worked cases, pIC50 given:
Cc1nc(-n2nc(C3CC3)[nH]c2=O)ccc1Oc1ccnc(-c2cnn(C)c2)c1 | < 6.00
Cc1nc(-n2nc(C(C)(C)C)[nH]c2=O)ccc1Oc1cc(-c2cnn(C)c2)ncn1 | 6.00 to 7.00
Cc1nc(-n2nc(C(C)(C)C)[nH]c2=O)ccc1Oc1ccnc(NC(=O)N(C)C)c1 | < 6.00
CCC(C)(C)c1nn(-c2ccc(Oc3ccnc(-c4cnn(C)c4)c3)c(C)n2)c(=O)[nH]1 | 7.00 to 8.00
Cc1nc(-n2nc(C(C)C)[nH]c2=O)ccc1Oc1ccnc(-c2cnn(C)c2)c1 | 7.00 to 8.00
Cc1nc(-n2nc(Cc3ccccc3)[nH]c2=O)ccc1Oc1ccnc(-c2cnn(C)c2)c1 | 7.00 to 8.00
Cc1nc(-n2nc(C3CCCCC3)[nH]c2=O)ccc1Oc1ccnc(-c2cnn(C)c2)c1 | ≥ 8.00

Now, please, on to the next molecule.
Fill in the recorded pIC50 for this molecule, with M-NFS-60 cells as test system: Cc1nc(-n2cc(C(C)(C)C)[nH]c2=O)ccc1Oc1ccnc(-c2cnn(C)c2)c1 7.00 to 8.00
